- target or system: GST-tagged human ROCK2 catalytic domain 1-553 (Homo sapiens (Human), UniProt O75116)
- Sequence (O75116 1-553): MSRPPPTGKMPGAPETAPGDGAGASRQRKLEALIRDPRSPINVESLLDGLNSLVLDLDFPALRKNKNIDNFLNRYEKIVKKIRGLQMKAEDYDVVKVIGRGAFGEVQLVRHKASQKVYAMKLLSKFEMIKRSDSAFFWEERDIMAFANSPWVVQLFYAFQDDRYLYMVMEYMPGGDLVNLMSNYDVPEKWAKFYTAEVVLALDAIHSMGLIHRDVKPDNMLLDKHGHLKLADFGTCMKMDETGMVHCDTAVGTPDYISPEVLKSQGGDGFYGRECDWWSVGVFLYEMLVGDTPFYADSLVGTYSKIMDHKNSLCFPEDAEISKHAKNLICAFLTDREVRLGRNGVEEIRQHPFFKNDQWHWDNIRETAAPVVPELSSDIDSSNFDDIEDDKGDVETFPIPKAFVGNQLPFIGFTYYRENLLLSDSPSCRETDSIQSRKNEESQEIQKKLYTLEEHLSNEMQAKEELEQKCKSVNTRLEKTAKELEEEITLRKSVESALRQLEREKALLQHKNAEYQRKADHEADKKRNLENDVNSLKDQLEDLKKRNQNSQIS
- measurement notes: Inhibition of Rho-associated protein kinase isoform 2 (LANCE Ultra ULight-CREBtide FRET kinase assay)
- Type: biochemical
- conditions: selectivity ROCK2 vs ROCK1
readout type: Selectivity for ROCK2 over ROCK1 (IC50 ROCK1 / IC50 ROCK2)

As a guide, the following entries are already answered.
Nc1ccnc(-c2nnc(Nc3ccc4[nH]ncc4c3)s2)c1.O=C(O)C(F)(F)F [Example 35CT] | >5
Cc1cc(CC(=O)Nc2cccc(-c3nnc(Nc4ccc5[nH]ncc5c4Cl)s3)c2)on1 [Example 35BN] | >5
CC(=O)Nc1cc(C(=O)NCC(O)CO)cc(-c2nnc(Nc3ccc4[nH]ncc4c3Cl)s2)c1 (stereo not drawn) [Example 48W] | >5

Please look at this compound and report its Selectivity for ROCK2 over ROCK1 (IC50 ROCK1 / IC50 ROCK2): CC(=O)Oc1cccc(-c2nnc(Nc3ccc4[nH]ncc4c3Cl)s2)c1 [Example 35AG] >100

Please look at this compound and report its Selectivity for ROCK2 over ROCK1 (IC50 ROCK1 / IC50 ROCK2): CCS(=O)(=O)Nc1cncc(-c2nnc(Nc3ccc4[nH]ncc4c3)s2)c1.O=C(O)C(F)(F)F [Example 35CN] >5

Please look at this compound and report its Selectivity for ROCK2 over ROCK1 (IC50 ROCK1 / IC50 ROCK2): NCCn1cc(C(=O)Nc2cc(-c3nnc(Nc4ccc5[nH]ncc5c4)s3)ccn2)cn1.O=C(O)C(F)(F)F [Example 35BV] >50

Please look at this compound and report its Selectivity for ROCK2 over ROCK1 (IC50 ROCK1 / IC50 ROCK2): O=C(O)C(F)(F)F.Oc1cccc(-c2cccc(-c3nnc(Nc4ccc5[nH]ncc5c4Cl)s3)c2)n1 [Example 46B] >100
